- MEASURED TARGET: T1, human IL-36R on cells (human, UniProt Q9HB29 20-575)
- T1 sequence (looked up): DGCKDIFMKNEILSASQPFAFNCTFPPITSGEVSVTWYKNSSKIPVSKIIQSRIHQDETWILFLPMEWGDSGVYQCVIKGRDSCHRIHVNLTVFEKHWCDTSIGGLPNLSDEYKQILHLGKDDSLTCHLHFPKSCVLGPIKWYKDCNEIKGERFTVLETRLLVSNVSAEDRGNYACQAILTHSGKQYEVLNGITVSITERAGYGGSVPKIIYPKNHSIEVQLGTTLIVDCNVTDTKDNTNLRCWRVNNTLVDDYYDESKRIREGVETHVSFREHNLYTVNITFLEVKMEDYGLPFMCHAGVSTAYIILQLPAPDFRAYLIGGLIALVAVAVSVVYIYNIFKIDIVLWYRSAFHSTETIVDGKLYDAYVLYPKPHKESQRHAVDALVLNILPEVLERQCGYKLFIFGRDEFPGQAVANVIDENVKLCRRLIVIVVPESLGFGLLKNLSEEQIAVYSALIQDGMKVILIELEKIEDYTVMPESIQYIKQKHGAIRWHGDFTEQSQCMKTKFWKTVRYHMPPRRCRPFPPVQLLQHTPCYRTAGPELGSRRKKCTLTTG
- RUN DESCRIPTION: cell-based or functional assay
Please go through the items and note down their IC90, pNFκB, NCI/ADR-RES cells, trun-IL-36g.
Only the number, expressed in nM, is required.

Exercise: # get_value(readout='IC90, pNFκB, NCI/ADR-RES cells, trun-IL-36g', item= antibody 73F6 (antibody, V domains shown, Mouse monoclonal from hybridoma; also called 73F6F8; Mouse 73F6) VH: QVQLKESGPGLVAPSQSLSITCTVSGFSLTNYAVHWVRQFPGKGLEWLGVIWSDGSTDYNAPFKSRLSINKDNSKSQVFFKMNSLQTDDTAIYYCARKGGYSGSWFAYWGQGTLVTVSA VL: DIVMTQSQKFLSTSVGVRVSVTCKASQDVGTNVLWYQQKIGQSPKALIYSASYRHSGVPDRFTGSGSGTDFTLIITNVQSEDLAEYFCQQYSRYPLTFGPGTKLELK )
Key: 1.5

Exercise: # get_value(readout='IC90, pNFκB, NCI/ADR-RES cells, trun-IL-36g', item= antibody 78C8 (antibody, V domains shown, Mouse monoclonal from hybridoma; also called 78C8D1; Mouse 78C8) VH: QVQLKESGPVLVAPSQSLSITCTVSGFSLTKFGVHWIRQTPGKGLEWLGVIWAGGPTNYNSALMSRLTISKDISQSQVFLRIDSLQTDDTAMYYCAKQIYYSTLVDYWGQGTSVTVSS VL: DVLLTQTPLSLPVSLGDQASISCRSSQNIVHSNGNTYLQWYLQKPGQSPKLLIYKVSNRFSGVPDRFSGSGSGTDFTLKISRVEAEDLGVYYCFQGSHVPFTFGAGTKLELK )
Key: 4.6

FYI, the data here is from patent US20200231684A1.
